# MEASUREMENT_NOTES: molar heat capacity at constant pressure
# ASSAY_CONTEXT: 423.15 K; 101.33 kPa; Liquid; DSC
ASSAY_READOUT: molar heat capacity at constant pressure (J/K/mol)

CC(O)Cc1ccccc1 (centres undefined); 345.52
C/C=C/c1ccc(O)c(OC)c1; 381.6
CC(CO)c1ccccc1 (centres undefined); 341.98
CCC(O)c1ccccc1 (centres undefined); 352.6

----------
# MEASUREMENT_NOTES: molar heat capacity at constant pressure
# ASSAY_CONTEXT: 373.15 K; 101.33 kPa; Liquid; DSC
ASSAY_READOUT: molar heat capacity at constant pressure (J/K/mol)

CCCCCC(=O)CCCCC; 402.4
COc1cccc(OC)c1O [1,3-dimethoxy-2-hydroxybenzene]; 328.21
CC(=O)Oc1ccccc1 [phenyl ethanoate]; 255.41
CCC(O)c1ccccc1 (centres undefined); 338.03
CCOC(=O)Cc1ccccc1 [ethyl phenylacetate]; 306.89
C/C=C/c1ccc(O)c(OC)c1; 348.43
CC(CO)c1ccccc1 (centres undefined); 325.91
CC(O)Cc1ccccc1 (centres undefined); 329.31
CCCOCC(C)O (centres undefined); 314.7

----------
# ASSAY_CONTEXT: Crystal; DTA
ASSAY_READOUT: Normal melting temperature (°C)

Cc1cccc(CO)c1; -8.8

1. C/C=C/c1ccc(O)c(OC)c1
2. FC(F)C(F)(F)C(F)(F)C(F)(F)C(F)(F)C(F)(F)C(F)(F)C(F)(F)F
Between 1 and 2 , which one shows the smaller Normal melting temperature number? Write the label of whichever entry you select.
2
(2: -18.8 °C, 1: 21.6 °C)

----------
# ASSAY_CONTEXT: Crystal; DTA
ASSAY_READOUT: Normal melting temperature (°C)

CC(=O)Oc1ccccc1 [phenyl ethanoate]; -7
CCOC(=O)Cc1ccccc1 [ethyl phenylacetate]; -29
Cc1ccc(C=O)cc1 [4-methylbenzaldehyde]; -10.0
Cc1ccc(C(=O)O)cc1 [4-methylbenzoic acid]; 179.0
Cc1cccc(C=O)c1 [3-methylbenzaldehyde]; -48.4
CC(C)c1ccccc1O [2-(1-methylethyl)phenol]; 12

P. Cc1ccc(C=O)o1 [5-methylfurfural]
Q. CCCCCC(=O)CCCCC [undecan-6-one]
R. CCC(O)c1ccccc1 (stereo not given) [1-phenyl-1-propanol]
S. COc1cccc(OC)c1O [1,3-dimethoxy-2-hydroxybenzene]
Ascending by Normal melting temperature, please. When ranking, write the labels in the order the request describes.
P, R, Q, S

----------
# MEASUREMENT_NOTES: molar heat capacity at constant pressure
# ASSAY_CONTEXT: 323.15 K; 101.33 kPa; Liquid; DSC
ASSAY_READOUT: molar heat capacity at constant pressure (J/K/mol)

CC(CO)c1ccccc1 (centres undefined) [2-phenyl-1-propanol]; 300.98
CCC(O)c1ccccc1 (centres undefined) [1-phenyl-1-propanol]; 319.91
CC(O)Cc1ccccc1 (centres undefined) [1-phenyl-2-propanol]; 311.06
C/C=C/c1ccc(O)c(OC)c1 [2-methoxy-4-(1E)-1-propen-1-yl-phenol]; 336.45

----------
# MEASUREMENT_NOTES: Molar enthalpy of transition or fusion
# ASSAY_CONTEXT: Crystal; DSC
ASSAY_READOUT: Molar enthalpy of transition or fusion (kcal/mol)

FC(F)C(F)(F)C(F)(F)C(F)(F)C(F)(F)C(F)(F)C(F)(F)C(F)(F)F [1H-perfluorooctane]; 2.36
Cc1ccccc1C=O [2-methylbenzaldehyde]; 2.44

P. Cc1ccc(C=O)o1 [5-methylfurfural]
Q. CCCCCC(=O)CCCCC [undecan-6-one]
Between P and Q , whose measured Molar enthalpy of transition or fusion reads higher? Write the label of whichever entry you select.
Q

----------
# MEASUREMENT_NOTES: molar heat capacity at constant pressure
# ASSAY_CONTEXT: 473.15 K; 101.33 kPa; Liquid; DSC
ASSAY_READOUT: molar heat capacity at constant pressure (J/K/mol)

CCC(O)c1ccccc1 (stereo not given); 368.94
C/C=C/c1ccc(O)c(OC)c1; 387.19
CC(CO)c1ccccc1 (stereo not given); 351.78
CC(O)Cc1ccccc1 (stereo not given); 354.78
Cc1ccc(C(=O)O)cc1; 338.33

----------
# MEASUREMENT_NOTES: Molar enthalpy of transition or fusion
# ASSAY_CONTEXT: Crystal; DSC
ASSAY_READOUT: Molar enthalpy of transition or fusion (kJ/mol)

Cc1ccc(C(=O)O)cc1; 21.5

A. C/C=C/c1ccc(O)c(OC)c1
B. CCCCCCC1CCCCC1
Between A and B , which one shows the smaller Molar enthalpy of transition or fusion number? Write the label of whichever entry you select.
A
(A: 11.7 kJ/mol, B: 20.5 kJ/mol)

1. Cc1ccc(C=O)cc1
2. COc1cccc(OC)c1O [1,3-dimethoxy-2-hydroxybenzene]
Between 1 and 2 , whose measured Molar enthalpy of transition or fusion reads higher? Write the label of whichever entry you select.
2

----------
# MEASUREMENT_NOTES: Molar enthalpy of transition or fusion
# ASSAY_CONTEXT: Crystal; DSC
ASSAY_READOUT: Molar enthalpy of transition or fusion (kcal/mol)

CC(C)c1ccccc1O; 2.62
CC(=O)Oc1ccccc1 [phenyl ethanoate]; 3.06
Cc1cccc(CO)c1; 3.24
CCOC(=O)Cc1ccccc1 [ethyl phenylacetate]; 4.32
